Entry source: ChEMBL document CHEMBL1201862

- Test system: HL-60
- Assay Summary: NCI tumour cell line growth inhibition, 48 h
Counter-ions that a name gives are not always drawn. Active and inactive are the calls of the source. Rule as the data show it: active = GI50 up to about 1.1 µM and inactive = higher.
Classes used: active, inactive

> print(dat)
                                    compound  label.class
 1                     NC1c2ccccc2Nc2ccccc21     inactive
 2       COc1cc(CC(=O)O)c([N+](=O)[O-])cc1OC     inactive
 3  CCC(=O)Nc1ccc(/N=C/c2cccc(Oc3ccccc3)c2)cc1     inactive
 4  c1ccc2cc(CNCCOCCOCCNCc3ccc4ccccc4c3)ccc2c1     inactive
 5           Cc1nc(-c2ccccc2)cn2c1nc1ccccc12     inactive
 6  CC1=NCCc2c1[nH]c1cc(O)ccc21 [HARMALOL HYDROCHLORIDE]     inactive
 7  Cn1cc(-c2n[nH]c(-c3ccc(Cl)cc3)nc2=O)c2ccccc21       active
 8  O=C(NC(=O)c1ccccc1)OC(c1ccccc1)C1CO1 (configuration not stated)     inactive
 9  Clc1ccc(C2SCc3nc4ccccc4n32)c(Cl)c1 (configuration not stated)     inactive
10    COC1=CC(c2ccc(Br)[nH]2)=N/C1=C/NCC(C)C     inactive
11      Cc1cc(C)c(NC(=O)/C=C/c2ccccc2)c(C)c1     inactive
12           NCC(=O)NC1(c2cc3ccccc3s2)CCCCC1     inactive

====

- Test system: MOLT-4
- Assay Summary: NCI tumour cell line growth inhibition, 48 h
Active and inactive are the calls of the source. Rule as the data show it: active = GI50 up to about 1.1 µM and inactive = higher.
Classes used: active, inactive

Molecule	Label Class
CCCCn1c(C)c(C(=O)OCC)c2cc(OCc3ccc(C(=O)Nn4c(C)ccc4C)cc3)c(Br)cc21	inactive
COc1cc(C2SCC(=O)N2c2ccc(Cl)cc2)cc(OC)c1OC (stereo unspecified)	inactive
COc1ccc(Nc2nc(NNC(=O)Cc3ccccc3)nc(NNC(=O)c3ccncc3)n2)cc1	inactive
CCOC(=O)c1c(SCCN2CCOCC2)n(-c2ccccc2)c(=S)n(-c2ccccc2)c1=O	inactive
C=C1CCCCCCCCCCC12SCCC2CCCCSC (stereo unspecified)	inactive
C(=C\N1CCCCC1)/c1nnnn1-c1ccccc1	inactive
COc1ccc(C2SCC(=O)N2NC(=O)C(C)Oc2ccccc2C)cc1 (stereo unspecified)	inactive
O=c1c2cc(S(=O)(=O)Nc3c(Cl)cccc3Cl)ccc2ncn1NS(=O)(=O)c1ccc2ccccc2c1	inactive
C#CC(O)(c1nc2ccccc2s1)c1nc2ccccc2s1	inactive
NC1=Nc2ncccc2C(=O)NN1	inactive
CC(=O)Oc1ccc(C2COc3cc(OC(C)=O)c(OC(C)=O)cc3C2)cc1 (stereo unspecified)	inactive
C=CC1(c2ccc3ccccc3c2)OCC(CC)O1 (stereo unspecified)	inactive
C#CCOC(=O)C(N)CCSC (stereo unspecified)	inactive
Cc1[nH]c2ncn(/N=C/c3ccccc3)c(=N)c2c1Cc1ccccc1	inactive
CCCc1c(C(=O)OCC)[nH]c(-c2ccc(-c3[nH]c(C(=O)OCC)c(CCC)c3C(=O)OCC)s2)c1C(=O)OCC	inactive
Cc1c(C(=O)C/C(=N/NC(=O)c2ccccc2)C(=O)Nc2ccc(Cl)cc2)[n+]([O-])c2ccccc2[n+]1[O-]	inactive
N#Cc1c(-c2nc3ccccc3s2)c(=O)oc2cc(O)ccc12	inactive
N#Cc1ncn(-c2ccccc2)c1N	inactive
CC[C@@]1(C[C@H]2C[C@@]3(C(=O)OC)c4[nH]c5ccccc5c4CCN3C2=O)COC2(CCCCC2)O1	inactive
CCOC(=O)CCC(NC(=O)c1ccc(Nc2nc3ccccc3n3cccc23)cc1)C(=O)OCC (stereo unspecified)	inactive
CSc1cc(-c2ccccn2)nc(-c2ccccn2)c1	active
O=C(O)[C@@]1(Cc2ccc(O)cc2)C[C@@H]2Cc3ccccc3N2N1	inactive
CS(=O)(=O)Nc1ccc2c(c1)oc(=O)c1ccccc12	inactive
C/C(=N\Nc1nc2ccccc2s1)c1cccc[n+]1[O-]	inactive
Cc1ccccc1/N=N/c1ccc(/N=N/c2c(O)ccc3ccccc23)c(C)c1	inactive
COc1ccc(O)c2c1C(=O)CCCC2=O	inactive
CC(C)NC1CCCCC2c3ccccc3C12O (stereo unspecified)	inactive
CC(C)[Si]1(C(C)C)OCC2OC(n3ccc(=O)[nH]c3=O)C([Se]c3ccccc3)C2O[Si](C(C)C)(C(C)C)O1 (stereo unspecified)	inactive
CC(C)(C)[Si](C)(C)OCC1C=CC(n2cnc3c(N)ncnc32)O1 (stereo unspecified)	inactive
Nc1nc(SCC(=O)c2ccccc2)c2[nH]cnc2n1	inactive
CC(C)=CCC[C@@H](C)C1=C(O)C(=O)C(C)=C(Nc2ccccc2Br)C1=O	inactive
ClCCCN1CCCCC1CCl (stereo unspecified)	inactive
O=C1C=C2CC[C@H]3[C@@H]4CC[C@H](OC(=O)c5cccc6cc7ccccc7nc56)[C@H]4CC[C@@H]3[C@H]2CC1	inactive
Clc1ccc(/N=N/c2nc3ccccc3nc2/N=N/c2ccc(Cl)cc2Cl)c(Cl)c1	inactive
CC(C)[C@H]1NC(=O)[C@H]2N=C(O[C@@H]2C)[C@@H]2CCCN2C(=O)[C@H](Cc2ccccc2)NC(=O)[C@@H]2COC(=N2)[C@@H](Cc2ccccc2)NC(=O)[C@@H]2COC1=N2	inactive
C/C(=N\NC(=O)CC#N)c1c(O)cc(C)oc1=O	inactive
CCOC(OCC)C(CC)[Se]c1ccccc1[N+](=O)[O-] (stereo unspecified)	inactive
CC(CN(C)C)C(=O)c1ccccc1C(=O)O (stereo unspecified)	inactive
CCOP(=O)(OCC)C(C(=O)OC)C(=O)C(=O)Nc1ccc(Cl)cc1Cl (stereo unspecified)	inactive
O=c1c(C(c2ccc(/C=C/c3ccccc3)cc2)c2c(O)oc3cc(O)ccc3c2=O)c(O)oc2cc(O)ccc12	inactive
CCCCC1Cc2cc(OC)ccc2-c2nc3cc(OC)ccc3n21.CCCCC1Cc2cc(OC)ccc2-c2nc3ccc(OC)cc3n21 (stereo unspecified)	inactive

====

- Test system: A549
- Assay Summary: NCI tumour cell line growth inhibition, 48 h
Active and inactive are the calls of the source. No stated cut-off is given here; in the data, active = GI50 up to about 1.1 µM and inactive = higher.
Measured Quantity: GI50

> print(dat)
                                    compound  assay.system               result
 1       C#CC(O)(c1nc2ccccc2s1)c1nc2ccccc2s1          A549     29 µM (inactive)
 2      CC1=Nn2c(nnc2-c2ccc(N)cc2)NC(C)(C)C1          A549  > 100 µM (inactive)
 3    Nc1ccc(C(=O)O)cc1.Nc1nc(N)c2nc[nH]c2n1          A549   13.3 µM (inactive)
 4     C/C(=N\Nc1nc2ccccc2s1)c1cccc[n+]1[O-]          A549   42.8 µM (inactive)
 5              N#C/C(=C\c1cc(O)ccc1O)C(N)=O          A549   78.5 µM (inactive)
 6  COc1ccc(/C=C2\N=C(c3ccccc3)N(C3Nc4cc5c(cc4S3)NC(N3C(=O)/C(=C/c4ccc(OC)cc4)N=C3c3ccccc3)S5)C2=O)cc1 (stereo unspecified)          A549   36.8 µM (inactive)
 7  CC(C)(C)NC(=O)/C(=C\Sc1ccccc1)c1ccc2c(c1)OCO2          A549     31 µM (inactive)
 8              Nc1nc(Cl)cc(NCC2(CO)CCCC2)n1          A549  > 100 µM (inactive)
 9     CS(=O)(=O)Nc1ccc2c(c1)oc(=O)c1ccccc12          A549  > 100 µM (inactive)
10             Cc1c(C)c(C)c(CSC(=N)N)c(C)c1C          A549   17.2 µM (inactive)
11  COC(=O)C1CC2(CC3=C1CCCC3)OCCO2 (stereo unspecified)          A549  > 100 µM (inactive)

====

- Tested on: SK-OV-3
- Assay Summary: NCI tumour cell line growth inhibition, 48 h
Active and inactive are the calls of the source. Cut-off read from the data, not from the text of the source: active = GI50 up to about 1.1 µM and inactive = higher.
Measured Quantity: GI50

Molecule	Measured Quantity	Result
O=C(O)C12C3CCCC1C2CC3 (stereo not drawn)	GI50	> 100 µM (inactive)
COc1ccc(N2C(=O)CC(Cl)C2=O)cc1 (stereo not drawn)	GI50	> 100 µM (inactive)
COC1=C(OC)C(=O)c2cc(SC)c(=O)c(SC)cc2C1=O	GI50	36.4 µM (inactive)
O=C(/C=C/c1ccccc1)NC1C=Nc2ccc(Cl)cc2NC1=O (stereo not drawn)	GI50	25.1 µM (inactive)
CC(O)C1OC(n2ccc(=O)[nH]c2=O)CC1n1cncn1 (stereo not drawn)	GI50	> 100 µM (inactive)
O=C(O)c1cc(S(=O)(=O)N/N=C\c2c3ccccc3[n+]([O-])c3ccccc23)ccc1O	GI50	38.3 µM (inactive)
Cc1cc(C)cc(Nc2nnc3n2S(=O)(=O)c2cc(C)c(Cl)cc2S3)c1	GI50	14.3 µM (inactive)
CCCCn1c(C)c(C(=O)OCC)c2cc(OCc3ccc(C(=O)Nn4c(C)ccc4C)cc3)c(Br)cc21	GI50	> 100 µM (inactive)
O=C(NC1CCN(Cc2ccccc2)CC1)c1ccc(I)cc1	GI50	44.1 µM (inactive)
CCN(CC)Cc1ccc(Nc2c3ccccc3nc3ccccc23)cc1	GI50	2 µM (inactive)
On1c(-c2ccccc2)c(-c2c(-c3ccccc3)n(O)c3ccccc23)c2ccccc21	GI50	29.8 µM (inactive)
CCSc1nc(N2CCCC2)s[s+]1.[O-][Cl+3]([O-])([O-])[O-]	GI50	84.1 µM (inactive)
O=C1c2ccccc2C2(c3ccc(F)cc3)NCCN12 (stereo not drawn)	GI50	> 100 µM (inactive)
COc1ccc(C(Cc2ccccc2)C2NC(=S)NC2=O)cc1 (stereo not drawn)	GI50	> 25 µM (inactive)
COc1cc2ccc1OCc1cccc(n1)COc1ccc(cc1OC)/C=N\CCNCCNCC/N=C\2	GI50	> 100 µM (inactive)
COc1ccc2nc3cc(Cl)ccc3c(NCCNC(=O)Cn3c(=O)n(C)c(=O)c4c3nc3c(c(=O)n(C)c(=O)n3C)[n+]4[O-])c2c1	GI50	32.1 µM (inactive)
C=C1CCCCCCCCCCC12SCCC2CCCCSC (stereo not drawn)	GI50	47.3 µM (inactive)
N/C(=N\NC(=O)c1nc2ccccc2s1)c1ccccn1	GI50	9.79 µM (inactive)
CCN(CC)C(=O)CCCCCCCCC1CO1 (stereo not drawn)	GI50	> 100 µM (inactive)
Clc1nc2n(c1/C=C/c1cccs1)CCS2	GI50	30.7 µM (inactive)
N#Cc1nc(-c2cccs2)oc1N	GI50	> 100 µM (inactive)
O=C1[C@H]2ON(c3ccccc3)C(c3cccc([N+](=O)[O-])c3)[C@H]2C(=O)N1c1ccc(Cc2ccc(N3C(=O)[C@@H]4ON(c5ccccc5)C(c5cccc([N+](=O)[O-])c5)[C@@H]4C3=O)cc2)cc1 (stereo partly drawn)	GI50	> 100 µM (inactive)
CCCN(CCC)c1c([N+](=O)[O-])cc(C(=O)N(CC)CC)cc1[N+](=O)[O-]	GI50	25.5 µM (inactive)
O=c1c(Sc2c(O)c3ccccc3c3ccccc3c2=O)c(O)c2ccccc2c2ccccc12	GI50	> 100 µM (inactive)
CCCCCC/C=C/CCCCCCCc1cccc(O)c1C(=O)O	GI50	36.3 µM (inactive)
O=c1c2cc(S(=O)(=O)Nc3c(Cl)cccc3Cl)ccc2ncn1NS(=O)(=O)c1ccc2ccccc2c1	GI50	> 62.5 µM (inactive)
O[C@]12c3ccccc3C1CCCCC2N1CCOCC1 (stereo partly drawn)	GI50	> 100 µM (inactive)
C[C@]12CC[C@H]3[C@@H](CC[C@]4(O)C[C@@H](O)CC[C@]34CO)[C@@]1(O)CC[C@@H]2C1=CC(=O)OC1	GI50	2.64 µM (inactive)
CN1C2CCC1CN(CCOC(c1ccc(F)cc1)c1ccc(F)cc1)C2	GI50	42.3 µM (inactive)
COc1ccc(C=C(c2ccc(OCc3ccccc3)cc2)c2ccc(OCc3ccccc3)cc2)cc1	GI50	> 100 µM (inactive)
CC(O)C1OC(O)C2OC(C)(C)OC12 (stereo not drawn)	GI50	> 100 µM (inactive)
CCCC#CC(O)(C(=O)OC1CCN(C)CC1)C1CCCCC1 (stereo not drawn)	GI50	> 100 µM (inactive)
COc1cccc(C(C#N)NC23CC4CC(CC(C4)C2)C3)c1 (stereo not drawn)	GI50	> 100 µM (inactive)
O=c1[nH]c2ccccc2c(=O)n1/N=C/c1ccc(O)cc1	GI50	> 100 µM (inactive)
COC(=O)N/N=C(\Cc1ccccc1)CN(C)C	GI50	> 100 µM (inactive)
O=C(Cn1nnc(-c2ccccc2)n1)N/N=C/c1cn(Cc2ccc(Cl)cc2Cl)c2ccccc12	GI50	> 100 µM (inactive)
COc1cc(/C=C/C(=O)c2sc(NNC(C)=O)nc2C)ccc1O	GI50	> 100 µM (inactive)
COC(=O)C12CCC(C(=O)OC)(Cc3c(c4ccccc4n3S(=O)(=O)c3ccccc3)C1)C2=O (stereo not drawn)	GI50	> 70.8 µM (inactive)
O=C1NC2OCC(O)C(O)C2O1 (stereo not drawn)	GI50	> 100 µM (inactive)
CCOC(=O)CCC(NC(=O)c1ccc(Nc2nc3ccccc3n3cccc23)cc1)C(=O)OCC (stereo not drawn)	GI50	24.1 µM (inactive)
COc1cc(C2S/C(=C/c3ccccc3)C(=O)N2c2ccccn2)cc(OC)c1OC (stereo not drawn)	GI50	28.2 µM (inactive)
O=C(O)CCNCCCCNCCC(=O)O	GI50	> 100 µM (inactive)
CC1(C)CC(=O)C(CCC(=O)/C=C/c2ccccc2)C(=O)C1	GI50	> 100 µM (inactive)
